System: NLRP3 (Homo sapiens, UniProt Q96P20)
Sequence (Q96P20 whole entry): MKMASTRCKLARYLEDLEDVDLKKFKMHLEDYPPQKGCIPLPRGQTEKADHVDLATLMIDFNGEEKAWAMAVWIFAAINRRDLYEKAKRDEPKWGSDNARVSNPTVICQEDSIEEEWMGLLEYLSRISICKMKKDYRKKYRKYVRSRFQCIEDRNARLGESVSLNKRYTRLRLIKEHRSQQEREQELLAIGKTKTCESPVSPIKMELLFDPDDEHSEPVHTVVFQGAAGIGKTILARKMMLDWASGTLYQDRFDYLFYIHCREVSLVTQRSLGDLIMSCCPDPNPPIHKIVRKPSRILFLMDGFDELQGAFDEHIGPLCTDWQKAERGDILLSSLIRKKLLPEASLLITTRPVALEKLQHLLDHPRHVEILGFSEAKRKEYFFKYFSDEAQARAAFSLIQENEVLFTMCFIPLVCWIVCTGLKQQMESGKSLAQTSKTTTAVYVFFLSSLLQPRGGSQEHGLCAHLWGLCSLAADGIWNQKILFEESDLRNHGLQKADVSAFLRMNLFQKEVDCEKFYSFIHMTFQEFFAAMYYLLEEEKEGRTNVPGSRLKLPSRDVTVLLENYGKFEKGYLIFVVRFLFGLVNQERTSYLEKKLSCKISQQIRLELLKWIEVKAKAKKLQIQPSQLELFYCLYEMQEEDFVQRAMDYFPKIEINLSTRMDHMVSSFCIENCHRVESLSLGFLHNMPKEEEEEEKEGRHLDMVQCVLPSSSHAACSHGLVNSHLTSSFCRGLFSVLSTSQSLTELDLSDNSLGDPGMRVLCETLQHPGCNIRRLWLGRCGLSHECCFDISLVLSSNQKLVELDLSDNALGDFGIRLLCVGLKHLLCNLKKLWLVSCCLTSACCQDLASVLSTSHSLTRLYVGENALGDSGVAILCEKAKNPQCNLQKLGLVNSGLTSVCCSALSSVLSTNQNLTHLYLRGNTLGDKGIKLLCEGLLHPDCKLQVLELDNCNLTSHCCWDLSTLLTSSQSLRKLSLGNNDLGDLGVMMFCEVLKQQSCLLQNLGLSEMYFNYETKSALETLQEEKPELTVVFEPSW
Assay Method Text: Measurement of IL-1β production in PMA-differentiated THP-1 cells (NLRP3 hIL1B EC50)
Observable: log10 of EC50 (log10 of the value in nM)
All values: log10 EC50 [nM].

Solved entries:
| Molecule | Observed Value |
| --- | --- |
| Nc1nc(N[C@H]2C[C@@H]3C[C@H]2[C@@H](O)C3)c2ccc(-c3ccn[nH]3)cc2n1 (racemic) [Example 44] | 3.37 |
| Nc1nc(N[C@@H]2C[C@H]3C[C@@H](O)C[C@H]3C2)c2ccc(-c3ccn[nH]3)cc2n1 | 2.78 |
| Nc1nc(NC2CC3CC(O)C2C3)c2ccc(-c3ccn[nH]3)cc2n1 (single isomer, unassigned) [Example 41B] | 2.98 |

For each of the items listed, what is its log10 of EC50?
1. Nc1nc(N[C@@H]2C[C@H]3CC[C@]2(CO)O3)c2ccc(-c3ccn[nH]3)cc2n1 (racemic)
2. CC(C)(C)OC(=O)N1CCC2(CC1)CC2Nc1nc(N)nc2cc(-c3cc[nH]n3)ccc12 (single isomer, unassigned) [Example 28A]
3. Nc1nc(N[C@@H]2C[C@@H]3CC[C@H]2O3)c2ccc(-c3ccn[nH]3)cc2n1 (racemic)
4. Nc1nc(N[C@H]2CC3CC2[C@@H](O)C3)c2ccc(-c3ccn[nH]3)cc2n1 (mixture of isomers)

[3.57, 3.29, 2.70, 2.34]

###

System: NLRP3 (Homo sapiens, UniProt Q96P20)
Assay Method Text: Measurement of IL-1β production in PMA-differentiated THP-1 cells (NLRP3 hIL1B EC50)
Experimental: Measurement of IL-1β Production in PMA-Differentiated THP-1 Cells (§1) THP-1 cells were purchased from the American Type Culture Collection and sub-cultured according to instructions from the supplier. […] Cell free supernatant was collected and the production of IL-1β was evaluated by ELISA. […] as §1
Please provide measured EC50 for the entries that follow.
One number for each entry, in nM.

| Molecule | Value Unit | Observed Value |
| --- | --- | --- |
| Nc1cc(N[C@@H]2C[C@H]3C[C@@H](O)C[C@H]3C2)c2ccc(-c3ccn[nH]3)cc2n1 [Example 14] | nM | 640 |
| Nc1nc(N2C3CCC2COC3)c2ccc(-c3cc[nH]n3)cc2n1 [Example 12] | nM | 640 |
| Nc1cc(N2CC3CCC(C2)O3)c2ccc(-c3ccn[nH]3)cc2n1 [Example 23] | nM | 740 |
| CC(C)(C)OC(=O)N1CCC2(CC1)CC2Nc1nc(N)nc2cc(-c3cc[nH]n3)ccc12 (single isomer, unassigned) [Example 28B] | nM | 780 |

For each of the items listed, what is its EC50?
1. Nc1nc(NC2C3CCC(C3)C2CO)c2ccc(-c3ccn[nH]3)cc2n1 (stereo not shown) [Example 5]
2. Nc1cc(N[C@@H]2C[C@@H]3CC[C@H]2O3)c2ccc(-c3ccn[nH]3)cc2n1 (racemic) [Example 30]

[810, 650]

For each of the items listed, what is its EC50?
1. Nc1nc(N[C@H]2C[C@@H]3C[C@H]2C[C@H]3O)c2ccc(-c3ccn[nH]3)cc2n1 (racemic) [Example 42]
2. Nc1cc(NC23CC(CO)(C2)C3)c2ccc(-c3ccn[nH]3)cc2n1 [Example 16]
3. Nc1nc(N[C@H]2C[C@H]3O[C@@H]2C[C@@H]3O)c2ccc(-c3ccn[nH]3)cc2n1 (racemic) [Example 31A]
4. Nc1nc(NC2CC23CC3)c2ccc(-c3cc[nH]n3)cc2n1 (stereo not shown) [Example 35]

740
130
1210
190

For each of the items listed, what is its EC50?
1. Nc1cc(NCC23CCC(CO)(CC2)OC3)c2ccc(-c3ccsc3)cc2n1 [Example 51]
2. Nc1nc(NC23CC(CO)(C2)C3)c2ccc(-c3ccn[nH]3)cc2n1 [Example 7]

[1860, 200]

For each of the items listed, what is its EC50?
1. Nc1cc(N2C3CCC2COC3)c2ccc(-c3ccn[nH]3)cc2n1 [Example 22]
2. Nc1nc(NC2CC3CC(O)C2C3)c2ccc(-c3ccn[nH]3)cc2n1 (single isomer, unassigned) [Example 41A]
3. Nc1cc(N[C@@H]2C[C@H]3C[C@@H]2[C@@H](O)C3)c2ccc(-c3ccn[nH]3)cc2n1 (racemic) [Example 46]
4. Nc1cc(NCC23CC(CO)(C2)C3)c2ccc(-c3ccn[nH]3)cc2n1 [Example 52]
5. Nc1cc(N[C@H]2C[C@@H]3CC[C@H]2O3)c2ccc(-c3ccn[nH]3)cc2n1 (racemic) [Example 15]
6. Nc1nc(NC2CC23CC3)c2ccc(-c3cc[nH]n3)cc2n1 (single isomer, unassigned) [Example 36B]

2000
160
1330
980
250
130
